test system: Puccinia recondita f. sp. tritici; assay: Test H: wheat leaf rust, curative spray on inoculated wheat seedlings, visual disease rating; details: wheat leaf rust, curative; 100 = 100% disease control, 0 = no control relative to controls
EXPERIMENTAL_READOUT: Test H rating (% disease control) (%)

[[record]]
smiles_structure = "Cc1nn(C)c(Nc2ccc(Cl)cc2Cl)c1-c1c(F)cccc1F"
unit_annotation = "%"
measured = 0

[[record]]
smiles_structure = "Cc1nn(C)c(Oc2ccc(F)cc2C#N)c1-c1ccc(F)cc1Cl"
unit_annotation = "%"
measured = 99

[[record]]
smiles_structure = "COc1ccc(-c2c(C)nn(C)c2Nc2ncc(Cl)cc2Cl)c(Cl)c1"
unit_annotation = "%"
measured = 0

[[record]]
smiles_structure = "Cc1nn(C)c(Nc2ncc(Cl)cc2Cl)c1-c1ccccc1C(F)(F)F"
unit_annotation = "%"
measured = 0

[[record]]
smiles_structure = "Cc1nn(C)c(Nc2ccc(F)cc2F)c1-c1c(F)cccc1C(F)(F)F"
unit_annotation = "%"
measured = 0

[[record]]
smiles_structure = "Cc1nn(C)c(Oc2ncc(C(F)(F)F)cc2F)c1-c1ccc(F)cc1Br"
unit_annotation = "%"
measured = 0

[[record]]
smiles_structure = "Cc1nn(C)c(Oc2cc(C#N)c(C#N)cc2Cl)c1-c1ccc(F)cc1Cl"
unit_annotation = "%"
measured = 0

[[record]]
smiles_structure = "Cc1nn(C)c(Nc2cc(C#N)ccc2Cl)c1-c1ccc(F)cc1Cl"
unit_annotation = "%"
measured = 0

[[record]]
smiles_structure = "Cc1nn(C)c(Nc2ccc(F)cc2F)c1-c1ccc(F)cc1F"
unit_annotation = "%"
measured = 0

[[record]]
smiles_structure = "Cc1nn(C)c(Nc2ccc(Cl)cc2)c1-c1ccc(F)cc1F"
unit_annotation = "%"
measured = 0

[[record]]
smiles_structure = "Cc1nn(C)c(Oc2c(F)cc(C#N)cc2F)c1-c1ccccc1Br"
unit_annotation = "%"
measured = 0

[[record]]
smiles_structure = "CCN(c1c(F)cc(OC)cc1F)c1c(-c2ccc(F)cc2Cl)c(C)nn1C"
unit_annotation = "%"
measured = 18

[[record]]
smiles_structure = "Cc1nn(C)c(Nc2ccc(F)cc2Cl)c1-c1ccc(F)cc1F"
unit_annotation = "%"
measured = 0

[[record]]
smiles_structure = "C=CCN(c1c(F)cc(OC)cc1F)c1c(-c2ccc(F)cc2Cl)c(C)nn1C"
unit_annotation = "%"
measured = 74

[[record]]
smiles_structure = "COc1cc(Oc2c(-c3c(F)cc(F)cc3F)c(C)nn2C)ccc1Cl"
unit_annotation = "%"
measured = 15

[[record]]
smiles_structure = "COc1ccc(-c2c(C)nn(C)c2Nc2cc(F)ccc2F)c(Cl)c1"
unit_annotation = "%"
measured = 0

[[record]]
smiles_structure = "Cc1nn(C)c(Oc2ccc(C#N)c(C#N)c2)c1-c1ccc(F)cc1Cl"
unit_annotation = "%"
measured = 0

[[record]]
smiles_structure = "Cc1nn(C)c(Nc2ccc(F)cc2F)c1-c1ccccc1F"
unit_annotation = "%"
measured = 0

[[record]]
smiles_structure = "Cc1nn(C)c(Nc2ccc(F)cc2)c1-c1ccc(F)cc1F"
unit_annotation = "%"
measured = 0

[[record]]
smiles_structure = "COc1ccc(-c2c(C)nn(C)c2Oc2c(F)cc(C#N)cc2F)c(Cl)c1"
unit_annotation = "%"
measured = 92

[[record]]
smiles_structure = "Cc1nn(C)c(Nc2ccc(F)cc2F)c1-c1c(F)cccc1Cl"
unit_annotation = "%"
measured = 0

[[record]]
smiles_structure = "Cc1nn(C)c(Oc2ccc([N+](=O)[O-])c(C#N)c2)c1-c1c(F)cc(F)cc1F"
unit_annotation = "%"
measured = 0

[[record]]
smiles_structure = "COc1cc(F)c(-c2c(C)nn(C)c2Oc2ccc(Cl)c(F)c2)c(F)c1"
unit_annotation = "%"
measured = 9

[[record]]
smiles_structure = "Cc1nn(C)c(Nc2cc(F)c(F)cc2F)c1-c1ccc(F)cc1F"
unit_annotation = "%"
measured = 0

[[record]]
smiles_structure = "Cc1cc(Oc2c(-c3c(F)cc(F)cc3F)c(C)nn2C)ccc1Br"
unit_annotation = "%"
measured = 8

[[record]]
smiles_structure = "Cc1nn(C)c(Nc2c(F)cc(F)cc2F)c1-c1ccccc1F"
unit_annotation = "%"
measured = 0

[[record]]
smiles_structure = "COc1cc(F)c(-c2c(C)nn(C)c2Oc2ccc(C)c(C)c2)c(F)c1"
unit_annotation = "%"
measured = 99

[[record]]
smiles_structure = "COc1cc(Oc2c(-c3c(F)cc(F)cc3F)c(C)nn2C)ccc1[N+](=O)[O-]"
unit_annotation = "%"
measured = 0

[[record]]
smiles_structure = "Cc1nn(C)c(Nc2ccc(F)cc2)c1-c1c(F)cccc1C(F)(F)F"
unit_annotation = "%"
measured = 0

[[record]]
smiles_structure = "COc1cc(F)c(-c2c(C)nn(C)c2Oc2ccc(C)c(F)c2)c(F)c1"
unit_annotation = "%"
measured = 0

[[record]]
smiles_structure = "COc1cc(F)c(Nc2c(-c3ccccc3F)c(C)nn2C)c(F)c1"
unit_annotation = "%"
measured = 27

[[record]]
smiles_structure = "Cc1nn(C)c(Oc2cc(F)c(C#N)cc2F)c1-c1ccc(F)cc1Br"
unit_annotation = "%"
measured = 0

[[record]]
smiles_structure = "Cc1nn(C)c(Nc2ccc(C#N)cc2Cl)c1-c1ccc(F)cc1Cl"
unit_annotation = "%"
measured = 8

[[record]]
smiles_structure = "Cc1nn(C)c(Oc2ncc(C(F)(F)F)cc2Cl)c1-c1ccc(F)cc1Br"
unit_annotation = "%"
measured = 0

[[record]]
smiles_structure = "COc1cc(F)c(-c2c(C)nn(C)c2Oc2cccc(C#N)c2)c(F)c1"
unit_annotation = "%"
measured = 0

[[record]]
smiles_structure = "Cc1ccc(Oc2c(-c3c(F)cc(F)cc3F)c(C)nn2C)cc1F"
unit_annotation = "%"
measured = 0

